- Test system: BDF1 mice, P388 leukemia ip, median survival T/C
- assay_overview: NCI In Vivo Anticancer Drug Screen. Data for tumor model P388 Leukemia (intraperitoneal) in B6D2F1 (BDF1) mice
- condition_context: endpoint: median survival time; dose: 100.0 mg/kg/injection; schedule: Q01DX009 (ip); vehicle: saline with Tween-80; higher = longer survival
Toxic doses and inconclusive results are not listed.
Readings of T/C for the listed molecules

Sample records with T/C:
N#Cc1c(Cl)c(Cl)c(OC(=O)c2ccc(Cl)c(Cl)c2)c(Cl)c1Cl; 108 % of control
CS(=O)(=O)CC(O)(c1ccccc1)c1ccncc1 (stereo unspecified); 90 % of control
Cc1ccc(S(=O)(=O)/C=C(/I)c2ccccc2)cc1; 109 % of control

Challenge: Quick check: T/C of C=CCSc1ncnc2c1ncn2C1OC(CO)C(O)C1O (stereo unspecified) ?
Response given: 113 % of control

Challenge: Quick check: T/C of CCN(CC)CCC1(C#N)Cc2ccccc2N(CC)c2ccccc21 (stereo unspecified) ?
Response given: 107 % of control

Challenge: Quick check: T/C of CCCCCCC(=O)/C=C/c1cccc(OC)c1 ?
Response given: 105 % of control

###

- System: BDF1 mice, P388 leukemia ip, median survival T/C
- assay_overview: NCI In Vivo Anticancer Drug Screen. Data for tumor model P388 Leukemia (intraperitoneal) in B6D2F1 (BDF1) mice
- condition_context: endpoint: median survival time; dose: 6.25 mg/kg/injection; schedule: Q01DX009 (ip); vehicle: saline with Tween-80
Toxic doses and inconclusive results are not listed. Rule for the calls: active = survival T/C of 150% or more; inactive = T/C below 125% in these data.
Could you please pick one outcome from this set? label 1 for active, label 0 for inactive

// below: answered molecules
CC1(C)CN(Cc2ccccc2)C(C)(C)CN1; label 0
C/C(=N\N)c1ccc(Cl)cc1; label 0
CCOC(=O)/C=C(\C)Sc1cc(O)c2ccccc2c1O; label 0
CC[CH2][Pb]([CH2]CC)([CH2]CC)[O]C(=O)C(Cl)(Cl)Cl; label 0
O=C(Nc1nc(Cl)nc(Cl)n1)N1CCOCC1; label 0

Turning to the following molecule.
Challenge: Status in this test for CCCC(O)C(C)(C)[N+](=O)[O-] (stereo unspecified) ?
Response given: label 0

###

- Test system: BDF1 mice, P388 leukemia ip, median survival T/C
- assay_overview: NCI In Vivo Anticancer Drug Screen. Data for tumor model P388 Leukemia (intraperitoneal) in B6D2F1 (BDF1) mice
- condition_context: endpoint: median survival time; dose: 25.0 mg/kg/injection; schedule: Q01DX009 (ip); vehicle: saline; higher = longer survival
Inconclusive results and toxic doses are left out.
Readings of T/C for the listed molecules

Sample records with T/C:
CN=C1N[N+]2=C(C)CCCC2S1 (centres undefined); 97 % of control
NC(=O)NNC(N)=O; 100 % of control
NNC12CC3CC(CC(C3)C1)C2; 86 % of control
C=CCCC(=O)OC(C)(C)C; 109 % of control
C=CCOCC1CO1 (centres undefined); 106 % of control
CC(C)(C)C([NH-])=O.CC(C)(C)C([NH-])=O.[Cl][Pt+2][Cl]; 92 % of control
OC1CC2CCC(C1)N2CCCN1c2ccccc2Sc2ccc(Cl)cc21 (centres undefined); 104 % of control
CCOC(=O)c1c(N)ssc1=S; 100 % of control

Challenge: Quick check: T/C of COc1cccc(CC(N)=O)c1OC ?
Response given: 99 % of control

Challenge: Quick check: T/C of CC(C)n1cc2c(N)ncnc2n1 ?
Response given: 92 % of control

Challenge: Quick check: T/C of Cc1nc2ccc(O)cc2cc1CO ?
Response given: 95 % of control

Challenge: Quick check: T/C of O=C(Nc1ccc(C2=NCCCN2)cc1)c1ccc(C(=O)Nc2ccc(C3=NCCCN3)cc2)nc1 ?
Response given: 196 % of control

Challenge: Quick check: T/C of NCC1OC(OC2C(N)CC(N)C(O)C2OC2OC(CO)C(O)C2O)C(N)C(O)C1O (centres undefined) ?
Response given: 111 % of control

Challenge: Quick check: T/C of C[n+]1ccc(Nc2ccc(NC(=O)c3ccc(Nc4cc[n+](C)c5ccc(N)cc45)cc3N)cc2)cc1 ?
Response given: 172 % of control

Challenge: Quick check: T/C of CCCCC[C@H](CN(C)C)[C@H](O)/C=C/c1ccc(Cl)cc1 ?
Response given: 112 % of control

Challenge: Quick check: T/C of Cc1noc(C)c1CON ?
Response given: 91 % of control

Entry source: PubChem BioAssay AID328
